# experimental system: plasma purified human complement protein C3 (human) (UniProt P01024)
# Sequence (P01024 23-667, chain 1 of 2): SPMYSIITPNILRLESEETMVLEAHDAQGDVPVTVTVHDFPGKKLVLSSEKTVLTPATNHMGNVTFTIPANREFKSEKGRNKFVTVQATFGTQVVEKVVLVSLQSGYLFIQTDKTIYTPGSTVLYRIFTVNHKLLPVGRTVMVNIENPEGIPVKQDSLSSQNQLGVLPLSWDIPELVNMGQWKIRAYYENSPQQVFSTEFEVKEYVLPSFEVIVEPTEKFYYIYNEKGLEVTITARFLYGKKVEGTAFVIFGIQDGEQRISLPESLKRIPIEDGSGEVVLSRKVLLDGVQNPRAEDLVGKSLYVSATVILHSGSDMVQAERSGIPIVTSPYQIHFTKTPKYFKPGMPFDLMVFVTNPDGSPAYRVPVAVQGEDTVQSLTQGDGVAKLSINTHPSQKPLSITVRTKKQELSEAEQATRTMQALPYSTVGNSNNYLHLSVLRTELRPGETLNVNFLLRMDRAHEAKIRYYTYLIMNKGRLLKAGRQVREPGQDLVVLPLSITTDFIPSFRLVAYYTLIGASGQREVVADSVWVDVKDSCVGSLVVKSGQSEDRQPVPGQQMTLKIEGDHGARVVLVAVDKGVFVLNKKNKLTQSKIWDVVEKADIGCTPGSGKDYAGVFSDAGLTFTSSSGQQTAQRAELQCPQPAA
# Sequence (P01024 672-1663, chain 2 of 2): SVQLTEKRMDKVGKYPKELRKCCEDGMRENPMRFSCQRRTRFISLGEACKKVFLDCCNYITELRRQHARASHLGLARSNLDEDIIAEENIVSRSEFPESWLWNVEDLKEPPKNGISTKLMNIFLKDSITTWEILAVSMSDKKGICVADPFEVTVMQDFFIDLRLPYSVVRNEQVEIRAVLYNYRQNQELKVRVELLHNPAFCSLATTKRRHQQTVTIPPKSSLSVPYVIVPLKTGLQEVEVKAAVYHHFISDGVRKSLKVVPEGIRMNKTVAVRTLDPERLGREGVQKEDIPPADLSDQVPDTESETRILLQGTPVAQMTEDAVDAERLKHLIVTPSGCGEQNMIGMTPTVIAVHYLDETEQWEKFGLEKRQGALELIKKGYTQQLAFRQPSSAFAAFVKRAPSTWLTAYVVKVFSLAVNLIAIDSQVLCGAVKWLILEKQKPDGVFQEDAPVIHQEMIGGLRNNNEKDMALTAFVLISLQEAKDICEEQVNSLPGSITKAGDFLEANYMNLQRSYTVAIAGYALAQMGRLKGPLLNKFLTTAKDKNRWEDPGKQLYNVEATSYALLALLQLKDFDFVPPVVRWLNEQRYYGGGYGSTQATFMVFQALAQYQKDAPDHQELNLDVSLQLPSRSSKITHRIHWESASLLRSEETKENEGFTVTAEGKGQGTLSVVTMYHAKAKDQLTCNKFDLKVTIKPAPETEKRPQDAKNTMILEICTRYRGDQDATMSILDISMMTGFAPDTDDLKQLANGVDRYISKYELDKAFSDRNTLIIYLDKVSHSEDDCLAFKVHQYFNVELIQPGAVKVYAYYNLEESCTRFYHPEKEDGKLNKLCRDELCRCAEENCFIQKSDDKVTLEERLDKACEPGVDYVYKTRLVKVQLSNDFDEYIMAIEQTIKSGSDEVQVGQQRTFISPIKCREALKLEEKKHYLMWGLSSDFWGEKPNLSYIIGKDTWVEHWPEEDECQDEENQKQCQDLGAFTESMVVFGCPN
# experimental details: cell-based or functional assay
measurement kind: EC50 hC3 cleavage (nM)
Express the result in nM but write the number alone.

Recorded EC50 hC3 cleavage, per entry:
Ask: Looking for the measured EC50 hC3 cleavage of MTSP-1 protease domain Q38Y/I41S/F60eR/Y60gW/D96M/F97N/T98G/F99L/C122S/G151N/Q175L/Q192D (enzyme) VVGGTDADEGEWPWQVSLHALGYGHSCGASLISPNWLVSAAHCYIDDRGRRWSDPTQWTAFLGLHDQSQRSAPGVQERRLKRIISHPFFNMNGLDYDIALLELEKPAEYSSMVRPISLPDASHVFPAGKAIWVTGWGHTQYGGTNALILQKGEIRVINQTTCENLLPQLITPRMMCVGFLSGGVDSCDGDSGGPLSSVEADGRIFQAGVVSWGDGCAQRNKPGVYTRLPLFRDWIKENTGV , can you help?
Result: 10.4

Ask: Looking for the measured EC50 hC3 cleavage of MTSP-1 protease domain I41G/F97L/F99L/C122S/Q192S (enzyme) VVGGTDADEGEWPWQVSLHALGQGHGCGASLISPNWLVSAAHCYIDDRGFRYSDPTQWTAFLGLHDQSQRSAPGVQERRLKRIISHPFFNDLTLDYDIALLELEKPAEYSSMVRPISLPDASHVFPAGKAIWVTGWGHTQYGGTGALILQKGEIRVINQTTCENLLPQQITPRMMCVGFLSGGVDSCSGDSGGPLSSVEADGRIFQAGVVSWGDGCAQRNKPGVYTRLPLFRDWIKENTGV , can you help?
Result: 41.4

Ask: Looking for the measured EC50 hC3 cleavage of MTSP-1 protease domain I41G/F97R/F99L/C122S/G151N/Q175L/Q192S/D217V (enzyme) VVGGTDADEGEWPWQVSLHALGQGHGCGASLISPNWLVSAAHCYIDDRGFRYSDPTQWTAFLGLHDQSQRSAPGVQERRLKRIISHPFFNDRTLDYDIALLELEKPAEYSSMVRPISLPDASHVFPAGKAIWVTGWGHTQYGGTNALILQKGEIRVINQTTCENLLPQLITPRMMCVGFLSGGVDSCSGDSGGPLSSVEADGRIFQAGVVSWGVGCAQRNKPGVYTRLPLFRDWIKENTGV , can you help?
Result: 4.18

Ask: Looking for the measured EC50 hC3 cleavage of MTSP-1 protease domain I41S/D60bT/F60eR/Y60gW/D96M/F97N/T98G/F99L/C122S/G151N/Q175L/Q192D (enzyme) VVGGTDADEGEWPWQVSLHALGQGHSCGASLISPNWLVSAAHCYIDTRGRRWSDPTQWTAFLGLHDQSQRSAPGVQERRLKRIISHPFFNMNGLDYDIALLELEKPAEYSSMVRPISLPDASHVFPAGKAIWVTGWGHTQYGGTNALILQKGEIRVINQTTCENLLPQLITPRMMCVGFLSGGVDSCDGDSGGPLSSVEADGRIFQAGVVSWGDGCAQRNKPGVYTRLPLFRDWIKENTGV , can you help?
Result: 9.47

Attention now turns to another entry.
Ask: Looking for the measured EC50 hC3 cleavage of MTSP-1 protease domain Q38H/I41S/D60bT/F60eS/Y60gW/F97D/F99L/C122S/G151N/Q175L/Q192D (enzyme) VVGGTDADEGEWPWQVSLHALGHGHSCGASLISPNWLVSAAHCYIDTRGSRWSDPTQWTAFLGLHDQSQRSAPGVQERRLKRIISHPFFNDDTLDYDIALLELEKPAEYSSMVRPISLPDASHVFPAGKAIWVTGWGHTQYGGTNALILQKGEIRVINQTTCENLLPQLITPRMMCVGFLSGGVDSCDGDSGGPLSSVEADGRIFQAGVVSWGDGCAQRNKPGVYTRLPLFRDWIKENTGV , can you help?
Result: 4.9
